All values here come from paper PMC9490236.

Some molecules, each annotated with its measured Caco_R3.
- Test system: Caco-2 cells
- Method Description: Caco-2 permeability assay (apical to basolateral)
- Format: in vitro ADME, human
- Condition Label: Caco-2
Where a SMILES comes first, the peptide text is derived from it. [ ]: non-standard residue; d: D form. dNMeL = CN[C@H](CC(C)C)C(=O)O; dNMeA = CN[C@H](C)C(=O)O; Aib = CC(C)(N)C(=O)O
Give a plain numeric answer without units written out.

Previously resolved entries follow.
[
  {
    "Molecule": "CC(C)C[C@@H]1NC(=O)[C@H]2CCCN2C(=O)[C@@H]2CCCN2C(=O)[C@H](CC(C)C)NC(=O)[C@@H](CC(C)C)NC(=O)[C@@H](C)N(C)C(=O)[C@@H](C)N(C)C(=O)[C@@H](C(C)C)NC1=O [Design D8.6, LEU PRO DPRO LEU DVAL *DALA *DALA DLEU] (cyclo(LP[dP]L[dV][dNMeA][dNMeA][dL]))",
    "Target Or Test System": "Caco-2 cells",
    "Caco_R3": 0.45
  },
  {
    "Molecule": "CC[C@@H](C)[C@H]1NC(=O)[C@H](Cc2ccccc2)NC(=O)[C@@H](CC(C)C)N(C)C(=O)[C@@H]2CCCN2C(=O)[C@@H](C(C)C)NC(=O)[C@@H](C)N(C)C(=O)[C@H]2CCCN2C(=O)[C@@H](CC(C)C)NC(=O)[C@H](CC(C)C)NC(=O)[C@@H]2CCCN2C1=O [Design D10.30] (cyclo(F[dI]PL[dL][dP][dNMeA][dV]P[dNMeL]))",
    "Target Or Test System": "Caco-2 cells",
    "Caco_R3": 15.5
  }
]

Task item: Data request, read-out Caco_R3, for CC[C@@H](C)[C@H]1NC(=O)[C@@H](CC(C)C)NC(=O)[C@@H](CC(C)C)N(C)C(=O)[C@@H]2CCCN2C(=O)[C@@H](C(C)C)NC(=O)[C@H](CC(C)C)NC(=O)[C@@H](CC(C)C)N(C)C(=O)[C@@H]2CCCN2C1=O [Design D8.3.p1, DLEU DVAL PRO *DLEU DLEU DILE PRO *DLEU] (cyclo(L[dV]P[dNMeL][dL][dI]P[dNMeL]))
Reply: 8.9

Task item: So what's the measured Caco_R3 for this one? CC[C@H](C)[C@@H]1NC(=O)[C@@H](CC(C)C)N(C)C(=O)[C@@H]2CCCN2C(=O)[C@H](C(C)C)NC(=O)C(C)(C)NC(=O)[C@H](CC(C)C)NC(=O)C(C)(C)NC(=O)[C@@H]2CCCN2C(=O)[C@H]2CCCN2C1=O [Design D9.1, DPRO PRO AIB LEU AIB VAL PRO *DLEU ILE] (cyclo([Aib]L[Aib]VP[dNMeL]I[dP]P))
Reply: 2.09

----------
- Method Description: Pharmacokinetics and oral bioavailability of D11.2 in male SD rats (IV, PO, SQ)
- Format: in vivo
- Condition Label: male, Sprague Dawley, rat, plasma, iv, 1 mg/kg, IV 1 mg/kg, Mean
Where a SMILES comes first, the peptide text is derived from it. [ ]: non-standard residue; d: D form. NMeL = CN[C@@H](CC(C)C)C(=O)O; Sar = CNCC(=O)O
Recorded Metric: clearance
Give your result as the value with the unit written after it.

Task item: Suppose we examine the compound CC[C@@H](C)[C@H]1NC(=O)[C@@H]2CCCN2C(=O)[C@@H]([C@H](C)CC)NC(=O)CN(C)C(=O)[C@H](CC(C)C)NC(=O)[C@@H](Cc2ccccc2)NC(=O)[C@H](CC(C)C)N(C)C(=O)[C@H]2CCCN2C(=O)[C@@H](CC(C)C)NC(=O)[C@H](CC(C)C)NC(=O)[C@H]2CCCN2C1=O [Design D11.2] (cyclo(L[Sar][dI]P[dI][dP]L[dL][dP][NMeL][dF])) ; what clearance value has been reported?
Reply: 21.8 mL/min/kg
